Hey, just so you know, these numbers are from ChEMBL document CHEMBL1201862.

tested on: SK-MEL-28; assay: NCI tumour cell line growth inhibition, 48 h
Active and inactive are the calls of the source. Cut-off read from the data, not from the text of the source: active = GI50 up to about 1.1 µM and inactive = higher.
Outcomes: 1 = active, 0 = inactive

compound: CC(=O)[C@]1(O)Cc2c(O)c3c(c(O)c2C(OC2OC(C)C(O)C(O)C2F)C1)C(=O)c1ccccc1C3=O (stereo not given in full)
answerLabel: 1
--
compound: C#C/C=C/CC1OC(C(Br)CC)CC(Br)C2CC1O2 (stereo not given)
answerLabel: 0
--
compound: CCP(C)(=O)CC
answerLabel: 0
--
compound: CC(=O)N(CCN)CCN
answerLabel: 0
--
compound: c1ccc(-c2ccnc3c2ccc2c(-c4ccccc4)ccnc23)cc1
answerLabel: 0
--
compound: O=C(c1ccc(Cl)cc1)N(C(=O)N1CCCCC1)c1ccccc1
answerLabel: 0
--
compound: Nc1nc(O)c2c(n1)NCN(c1ccc(S(N)(=O)=O)cc1)C2
answerLabel: 0
--
compound: Cc1nnc(N)s/c1=N/O
answerLabel: 0
--
compound: CC(=O)CC(C)(C)NC(=O)[C@@]1(O)CC[C@H]2[C@@H]3CCC4=CC(=O)CC[C@@H]4[C@H]3CC[C@@]21C
answerLabel: 0
--
compound: CC(=O)c1cc2c(s1)C(=O)c1scc(C(C)=O)c1C2=O
answerLabel: 1
--
compound: O=C(C[n+]1ccc2ccccc2c1)c1ccc2ccc3ccccc3c2c1
answerLabel: 0
--
compound: Cc1nc2c(=O)[nH]c(=O)n(C)c2[nH]c1=O.c1ccncc1
answerLabel: 0
--
compound: Cc1ccccc1C(=O)c1ccccc1O
answerLabel: 0
--
compound: C[B@@-]1(c2ccc(C(F)(F)F)cc2)N[C@@H](Cc2ccccc2)C(=O)O1
answerLabel: 0
--
compound: CCCCCCCCCCCCOC1C(COCCN2CCCCC2)OC2OC(C)(C)OC21 (stereo not given)
answerLabel: 0
--
compound: CCOC(=O)c1cnc(N(C)C)nc1SC(=N)N
answerLabel: 0
--
compound: CC(=O)OC1CC[C@@]2(C)C(=CC[C@@H]3[C@@H]2CC[C@]2(C)Nc4nn(S(C)(=O)=O)cc4C[C@@H]32)C1 (stereo not given in full)
answerLabel: 0
--
compound: CC1=C(Cl)C=CP(=O)(OC(C)C)C1 (stereo not given)
answerLabel: 0
--
compound: O=C1N2CCc3c([nH]c4ccccc34)C23CC2CCCC12S3 (stereo not given)
answerLabel: 0
--
compound: CN(C)CC1CC/C(=C\c2ccc(O)cc2)C1=O (stereo not given)
answerLabel: 0
--
compound: O=CNc1ncn[nH]1
answerLabel: 0
--
compound: CN(C)/C=N/S(=O)(=O)c1nn2c(C=O)c(-c3cc4ccccc4oc3=O)nc2s1
answerLabel: 0
--
compound: CC(=O)C(=NNc1ccc(-n2c(C)nc3ccccc3c2=O)cc1)C(C)=O
answerLabel: 0
--
compound: Cc1ccsc1/C=N/Nc1ccc2ccccc2n1
answerLabel: 0
--
compound: CCOC(C)O[C@H]1C(=O)OCC1(C)C (stereo not given in full)
answerLabel: 0
--
compound: CCOC(=O)C1=C(Nc2ccc(Cl)c(Cl)c2)OC/C1=N\NC(=O)Cc1ccccc1
answerLabel: 0
--
compound: CS(=O)(=O)c1ccc(/C=N/NC(N)=S)cc1
answerLabel: 0
--
compound: CCOc1cccc(-c2cc(O)c3cc4c(cc3n2)OCO4)c1
answerLabel: 0
--
compound: O=C1CCC2(c3ccc(Cl)cc3)Nc3ccccc3N12 (stereo not given)
answerLabel: 0
--
compound: CC(=O)NC(Cc1ccccc1)NC(=O)O (stereo not given)
answerLabel: 0
--
compound: Cc1cc(O)nc(NN2C(Cl)C(=O)C2c2c(O)ccc3ccccc23)n1 (stereo not given)
answerLabel: 0
--
compound: CN(C)CCCNC(=O)c1cc(NC(=O)c2cc(NC(=O)CCCn3c4ccccc4c4ccccc43)cn2C)cn1C
answerLabel: 0
--
compound: COCCN1C(=O)C2c3[nH]c4ccccc4c3C3CCC(C(C)(C)C)CC3C2C1=O (stereo not given)
answerLabel: 0
--
compound: CNC(=O)Oc1ccc(-c2cn3cc(OC(=O)NC)ccc3n2)cc1
answerLabel: 0
--
compound: C=C(CCC/C(C)=C/C=C/[C@H](C)CCCc1ccoc1)C[C@@H]1OC(=O)[C@H](C)[C@@H]1O
answerLabel: 0
